TARGET SYSTEM: T1, wild type monomeric full-length HIV-1 YU-2 gp120 (HIV-1 YU-2, UniProt P35961 32-498)
T1 construct: domain: gp120; also called gp120YU-2; gp120 YU-2
PROCEDURE SUMMARY: SPR competition: gp120 YU-2 with increasing peptide over immobilised 17b; competitor 17b
Bridges are numbered along the chain shown (N, C = ends). Where no end group is shown, it is not given here. [ ]: non-standard residue; d: D form. triazolo‑Pro(2,4-diMe-benzyl) = triazolo-proline with ortho- and para-methyl phenyl methyl on the triazole; triazolo‑Pro(3,4-diMe-benzyl) = triazolo-proline with para- and meta-methyl phenyl methyl on the triazole; triazolo‑Pro(3,5-diMe-benzyl) = triazolo-proline with two meta-methyl phenyl methyl on the triazole; triazolo‑Pro(2-Me-benzyl) = triazolo-proline with ortho-methyl phenyl methyl on the triazole; triazolo‑Pro(3-Me-benzyl) = triazolo-proline with meta-methyl phenyl methyl on the triazole; triazolo‑Pro(4-Me-benzyl) = triazolo-proline with para-methyl phenyl methyl on the triazole; triazolo‑Pro(4-tBu-phenyl) = triazolo-proline with para-tert-butylphenyl on the triazole; triazolo‑Pro(benzyl) = triazolo-proline with phenyl methyl moiety on the triazole; triazolo‑Pro(biphenyl) = triazolo-proline with biphenyl group on the triazole
Assignment: determine reported IC50 for the given binders.
# number only, unit nM dropped from output

Name the reported IC50 value associated with the binder DNI[triazolo‑Pro(4-tBu-phenyl)]WK-NH2 (lactam 1-6) [cPT 22]
120

Then DNI[triazolo‑Pro(4-iPr-phenyl)]WK-NH2 (lactam 1-6) [cPT 21] ?
1260

Then DNI[triazolo‑Pro(2-Me-benzyl)]WK-NH2 (lactam 1-6) [cPT 25] ?
128

Then DNI[triazolo‑Pro(benzyl)]WK-NH2 (lactam 1-6) [cPT 19] ?
269

Then DNI[triazolo‑Pro(biphenyl)]WK-NH2 (lactam 1-6) [cPT 23] ?
720

Then DNI[triazolo‑Pro(3-Me-benzyl)]WK-NH2 (lactam 1-6) [cPT 26] ?
228

Then DNI[triazolo‑Pro]WK-NH2 (lactam 1-6; not fully specified) [cPT 18] ?
647

Then DNI[triazolo‑Pro(3,5-diMe-benzyl)]WK-NH2 (lactam 1-6) [cPT 28] ?
918

Then DNIPWK-NH2 (lactam 1-6; not fully specified (residue 4); also: further groups not given here) [cPT 20] ?
820

Then DNI[triazolo‑Pro(3,4-diMe-benzyl)]WK-NH2 (lactam 1-6) [cPT 29] ?
2600

Then DNI[triazolo‑Pro(2,4-diMe-benzyl)]WK-NH2 (lactam 1-6) [cPT 27] ?
136

Then DNI[triazolo‑Pro(4-Me-benzyl)]WK-NH2 (lactam 1-6) [cPT 24] ?
74

Source: patent US20220204565A1
